test: self-splicing fitness, log relative to wild type (ln ratio); higher = more splicing; Tetrahymena group I intron in knt gene, E. coli kanamycin selection, DiMSum; sequences stand for … in CUCUCU…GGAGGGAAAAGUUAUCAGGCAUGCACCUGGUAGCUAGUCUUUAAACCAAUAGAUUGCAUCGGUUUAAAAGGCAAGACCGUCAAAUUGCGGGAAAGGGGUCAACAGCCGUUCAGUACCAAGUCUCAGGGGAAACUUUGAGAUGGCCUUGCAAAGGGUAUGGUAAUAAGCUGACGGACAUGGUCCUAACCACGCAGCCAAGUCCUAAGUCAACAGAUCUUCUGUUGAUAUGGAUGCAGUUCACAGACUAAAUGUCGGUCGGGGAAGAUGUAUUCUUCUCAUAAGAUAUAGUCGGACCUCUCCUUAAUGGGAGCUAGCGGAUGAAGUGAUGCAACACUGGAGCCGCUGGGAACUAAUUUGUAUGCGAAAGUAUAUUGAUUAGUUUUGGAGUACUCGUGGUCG; details: 37 °C;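 also: selection with 25 µg/mL kanamycin versus none on LB agar overnight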
Decide by self-splicing fitness (ln): equal to or exceeding -0.4 means true (1), less means false (0).

| residue.codes | category.label |
| --- | --- |
| AAAUAGCAAUAUUACGCGCA | true (1) |
| UGUAAGCAAUAUUACGUGUG | true (1) |
| CGCCAGCAAUAUUACGCCGG | false (0) |
| CAGGAGCAAUAUUACGGGCG | true (1) |
| GUAGAGCAAUAUUACGUUUG | false (0) |
| GGGCAGCAAUAUUACGUCCG | true (1) |
| AAUCAGCAAUAUUACGUGGA | false (0) |
| UUAAAGCAAUAUUACGUAUA | true (1) |
| GUACAGCAAUAUUACGUGGU | false (0) |
| GGCUAGCAAUAUUACGUCAA | false (0) |
| GUAGAGCAAUAUUACGGGUA | false (0) |
| AAUGAGCAAUAUUACGCCUU | false (0) |
| GGCAAGCAAUAUUACGUUGU | false (0) |
| UGGUAGCAAUAUUACGGUAU | false (0) |
| UCUGAGCAAUAUUACGAAGC | false (0) |
| GCCAAGCAAUAUUACGAGAG | false (0) |

----------
# self-splicing fitness (ln) listing for each entry below
assay: self-splicing fitness, log relative to wild type (ln ratio); higher = more splicing; Tetrahymena group I intron in knt gene, E. coli kanamycin selection, DiMSum; sequences stand for … in CUCUCU…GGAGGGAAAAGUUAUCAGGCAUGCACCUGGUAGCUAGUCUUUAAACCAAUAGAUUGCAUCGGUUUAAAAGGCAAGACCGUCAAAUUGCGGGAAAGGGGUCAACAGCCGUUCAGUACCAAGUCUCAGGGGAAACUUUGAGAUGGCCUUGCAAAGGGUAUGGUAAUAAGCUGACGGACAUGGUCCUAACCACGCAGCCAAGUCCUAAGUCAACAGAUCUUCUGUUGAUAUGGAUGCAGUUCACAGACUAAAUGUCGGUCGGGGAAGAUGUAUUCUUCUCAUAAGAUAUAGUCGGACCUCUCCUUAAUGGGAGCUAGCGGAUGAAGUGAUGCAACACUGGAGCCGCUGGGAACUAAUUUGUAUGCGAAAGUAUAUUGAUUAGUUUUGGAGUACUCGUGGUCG; conditions: 37 °C

| residue.codes | self-splicing fitness (ln) |
| --- | --- |
| GUCAAGCAAUAUUACGCGUA | -0.362 |
| AAUUAGCAAUAUUACGGCUC | 0.0268 |
| GUGCAGCAAUAUUACGGCAU | -1.64 |
| GCAGAGCAAUAUUACGUUCC | -1.51 |
| ACCAAGCAAUAUUACGUUGG | -2.22 |
| UGGCAGCAAUAUUACGUUCU | 0.0497 |
| AAAGAGCAAUAUUACGAAAC | -2.67 |
| AAACAGCAAUAUUACGAUGC | -1.55 |
| CUGCAGCAAUAUUACGUCUC | -2.12 |
| CCUAAGCAAUAUUACGCGCC | -1.63 |
| GAAAAGCAAUAUUACGAACG | -0.364 |
| UAUGAGCAAUAUUACGCCGA | -1.73 |
| UAGUAGCAAUAUUACGACAA | -0.175 |
| UAGUAGCAAUAUUACGCGUG | -0.705 |
| AGCGAGCAAUAUUACGGAGC | -2.92 |
| AUUAAGCAAUAUUACGCAGG | -0.608 |

----------
assay: self-splicing fitness, log relative to wild type (ln ratio); higher = more splicing; Tetrahymena group I intron in knt gene, E. coli kanamycin selection, DiMSum; sequences stand for … in CUCUCU…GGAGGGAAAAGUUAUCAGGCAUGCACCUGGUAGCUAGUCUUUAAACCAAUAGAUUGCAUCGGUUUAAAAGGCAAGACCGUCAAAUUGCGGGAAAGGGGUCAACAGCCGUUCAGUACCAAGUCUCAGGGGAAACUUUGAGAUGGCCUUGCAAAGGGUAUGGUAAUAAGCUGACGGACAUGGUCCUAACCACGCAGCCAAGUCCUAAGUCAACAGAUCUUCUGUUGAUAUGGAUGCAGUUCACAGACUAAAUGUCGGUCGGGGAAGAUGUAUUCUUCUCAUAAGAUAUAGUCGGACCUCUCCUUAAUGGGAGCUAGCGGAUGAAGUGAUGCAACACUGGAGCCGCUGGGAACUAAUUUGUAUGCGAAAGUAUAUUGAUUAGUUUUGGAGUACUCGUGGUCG; details: 37 °C
# self-splicing fitness (ln) listing for each entry below
measured.attribute: self-splicing fitness (ln)

| residue.codes | measured.attribute | experimental.value |
| --- | --- | --- |
| UACUAGCAAUAUUACGUUGU | self-splicing fitness (ln) | -2.21 |
| GUUUAGCAAUAUUACGGCGA | self-splicing fitness (ln) | -0.0729 |
| GCUCAGCAAUAUUACGUCGG | self-splicing fitness (ln) | -0.555 |
| UUCGAGCAAUAUUACGGAGA | self-splicing fitness (ln) | -1.38 |
| UGUCAGCAAUAUUACGUAUG | self-splicing fitness (ln) | 0.657 |
| ACGUAGCAAUAUUACGAUGU | self-splicing fitness (ln) | -1.6 |
| AAGAAGCAAUAUUACGGCCU | self-splicing fitness (ln) | -0.574 |
| AUGCAGCAAUAUUACGGCCA | self-splicing fitness (ln) | 0.267 |
| ACUGAGCAAUAUUACGAGGU | self-splicing fitness (ln) | -1.99 |
| GCCUAGCAAUAUUACGACAA | self-splicing fitness (ln) | -2.22 |
| GGAUAGCAAUAUUACGGAUG | self-splicing fitness (ln) | -0.578 |
| CGUUAGCAAUAUUACGUUCG | self-splicing fitness (ln) | -1.02 |
| GUAAAGCAAUAUUACGGCUC | self-splicing fitness (ln) | 0.298 |
| GUGAAGCAAUAUUACGAGGA | self-splicing fitness (ln) | -0.805 |
| GUUUAGCAAUAUUACGAUGU | self-splicing fitness (ln) | -0.261 |
| CGCUAGCAAUAUUACGAACC | self-splicing fitness (ln) | -0.219 |
| UUUUAGCAAUAUUACGGAUU | self-splicing fitness (ln) | -1.36 |
| AAAGAGCAAUAUUACGAACU | self-splicing fitness (ln) | -1.14 |
| CCGCAGCAAUAUUACGGCUG | self-splicing fitness (ln) | -2.45 |
| AAGAAGCAAUAUUACGGCUG | self-splicing fitness (ln) | -0.25 |
| UCUGAGCAAUAUUACGCCAA | self-splicing fitness (ln) | -1.51 |
| CUUGAGCAAUAUUACGGUCU | self-splicing fitness (ln) | -3.61 |
| CCCAAGCAAUAUUACGGCUC | self-splicing fitness (ln) | -2.59 |
| ACCCAGCAAUAUUACGGCCU | self-splicing fitness (ln) | 0.0547 |
| GCUGAGCAAUAUUACGCGAU | self-splicing fitness (ln) | -2.59 |
| GAGAAGCAAUAUUACGAAGU | self-splicing fitness (ln) | -1.16 |
| UCUCAGCAAUAUUACGUCUA | self-splicing fitness (ln) | -1.38 |
| GCACAGCAAUAUUACGUGUG | self-splicing fitness (ln) | -2.22 |
| AACAAGCAAUAUUACGGUAA | self-splicing fitness (ln) | -1.04 |
| UUCCAGCAAUAUUACGAGCG | self-splicing fitness (ln) | -1.26 |
| GAGUAGCAAUAUUACGAAUC | self-splicing fitness (ln) | -2.31 |
| CCCAAGCAAUAUUACGACAA | self-splicing fitness (ln) | -3.12 |
| AGGCAGCAAUAUUACGGGGG | self-splicing fitness (ln) | -2.98 |
| AUCCAGCAAUAUUACGACAC | self-splicing fitness (ln) | -0.488 |
| GGAUAGCAAUAUUACGGUAG | self-splicing fitness (ln) | -3.74 |
| CGGGAGCAAUAUUACGUAAG | self-splicing fitness (ln) | -0.321 |
| GACGAGCAAUAUUACGUAAC | self-splicing fitness (ln) | -0.414 |
| ACUGAGCAAUAUUACGUACG | self-splicing fitness (ln) | -2.07 |
| AGUUAGCAAUAUUACGGACG | self-splicing fitness (ln) | 0.616 |
| AGAGAGCAAUAUUACGCGUA | self-splicing fitness (ln) | -2.08 |
| GGGUAGCAAUAUUACGACGU | self-splicing fitness (ln) | -0.0177 |
| UGAAAGCAAUAUUACGCCUU | self-splicing fitness (ln) | -2.01 |
| AAGUAGCAAUAUUACGAAGG | self-splicing fitness (ln) | -3.26 |
| GAGCAGCAAUAUUACGUUGG | self-splicing fitness (ln) | -2.43 |
| GACAAGCAAUAUUACGUUGA | self-splicing fitness (ln) | -1.48 |
| UUAAAGCAAUAUUACGAUUG | self-splicing fitness (ln) | -0.734 |
| UAUGAGCAAUAUUACGUUCA | self-splicing fitness (ln) | -0.652 |
| GCUGAGCAAUAUUACGGGGC | self-splicing fitness (ln) | -3.85 |
| UACGAGCAAUAUUACGAAUC | self-splicing fitness (ln) | -2.03 |
| UCAUAGCAAUAUUACGUAUA | self-splicing fitness (ln) | -2.13 |
| GCUGAGCAAUAUUACGUUUU | self-splicing fitness (ln) | -3.21 |
| CGGAAGCAAUAUUACGAGUC | self-splicing fitness (ln) | -2.39 |
| GGCGAGCAAUAUUACGCUGA | self-splicing fitness (ln) | -2.12 |
| CAGUAGCAAUAUUACGUAUC | self-splicing fitness (ln) | -2.2 |
| AGGCAGCAAUAUUACGCGGC | self-splicing fitness (ln) | -2.39 |
| GAUAAGCAAUAUUACGUCUU | self-splicing fitness (ln) | 0.135 |
| UAUGAGCAAUAUUACGCAUU | self-splicing fitness (ln) | -2.15 |
| UCACAGCAAUAUUACGUUAA | self-splicing fitness (ln) | -1.83 |
| UACAAGCAAUAUUACGUGUG | self-splicing fitness (ln) | -1.7 |
| ACGGAGCAAUAUUACGACAA | self-splicing fitness (ln) | -1.73 |
| UAUGAGCAAUAUUACGCCGC | self-splicing fitness (ln) | -1.02 |
| GACCAGCAAUAUUACGUGAU | self-splicing fitness (ln) | -0.151 |
| AAUUAGCAAUAUUACGAAUC | self-splicing fitness (ln) | -0.829 |
| CUUUAGCAAUAUUACGUUCU | self-splicing fitness (ln) | -2.78 |
| CUACAGCAAUAUUACGGCGA | self-splicing fitness (ln) | -2.91 |
| GGACAGCAAUAUUACGGUUU | self-splicing fitness (ln) | -0.504 |
| UUUGAGCAAUAUUACGUGUC | self-splicing fitness (ln) | -2.79 |
